# test_target: T1, human Claudin18.1 (human, UniProt P56856 1-261)
# T1 construct: whole, on cells; also called CLDN18.1; HEK293T-Claudin18.1 (human)
# T1 sequence (P56856 whole entry): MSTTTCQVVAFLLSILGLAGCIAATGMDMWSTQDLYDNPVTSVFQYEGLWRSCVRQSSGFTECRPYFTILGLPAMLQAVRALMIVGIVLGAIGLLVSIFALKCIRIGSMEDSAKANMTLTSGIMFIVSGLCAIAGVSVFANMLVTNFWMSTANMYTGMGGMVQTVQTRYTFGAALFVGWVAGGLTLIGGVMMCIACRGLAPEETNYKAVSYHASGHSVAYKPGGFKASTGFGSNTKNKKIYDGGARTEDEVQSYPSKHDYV
# procedure_details: FACS on HEK293T-Claudin18.1 (human) cells, antibody 50 µg/mL
Overview of reported Positive rate (%) across a group of binders:
Just the number in %, nothing appended.

As a guide, the following entries are already answered.
Request: Please list Positive rate (%) recorded for the binder 2D3A11 (antibody, V domains shown, Murine monoclonal antibody purified from hybridoma supernatant) VH: EVQLQQSGPELVKPGASVRMSCKASGYTFTSYVVHWVKQKPGQGLEWIGYINPYNADSKYNERFKGKATLTSDKSSNSAYMELSSLTSEDSAVYYCSRSYYGNSFDVWGAGTTVTVSS VL: DIVMTQSPSSLTVTTGEKVTMSCKSSQSLLNSGNQKNYLTWYQQKPGQSPKLLFFWASTRQSGVPDRFTGSGSGTYFTLTISSVQAEDLAVYYCQNDYYFPFTFGTGTKLEIK
Result: 0.25

Request: Please list Positive rate (%) recorded for the binder 25C7A5 (antibody, V domains shown, Murine monoclonal antibody purified from hybridoma supernatant) VH: EVQLQQPGAELVKPGTSVKLSCKASGYTFTNYWLHWVRQRPGQGLEWIGMMHPISGSSNNNERFKSKATLTVDKSSTTAYMQLSRMTSEDSAVYYCARGLLSAMDYWGQGTSVTVSS VL: CIVLTQSPKSMSMSVGERVTLSCKASENVKTYVSWYQQRPEQSPKLLIYEASNRYTGVPDRFTGSGSATVFTLTISSVQTEDLANYFCGQTYSFPPTFGSGTKLEIK
Result: 0.87

Request: Please list Positive rate (%) recorded for the binder 8H11A10 (antibody, V domains shown, Murine monoclonal antibody) VH: QVQLKESGPVLVAPSQSLSITCTVSGFSLTNYGVHWVRQPPGKGLEWLGVIWSGGRTNYNSALMSRLSISKDNSKSQVFLKMNSLQTDDTAMYYCAKRDGIYGDYWGQGTSVTVSS VL: DIVETQSPSSLTVTAGEKVTMSCKSSQSLLNSGNQKNYLTWYQQKPGQSPKLLIYWASTRESGVPDRFTGSGFGTDFTLTISSVQAEDLAVYYCQNDYIYPLTFGAGTKLELK
Result: 1.21

New cases:
Request: Please list Positive rate (%) recorded for the binder 40G11H2 (antibody, V domains shown, Murine monoclonal antibody) VH: EVQLQQSGAELARPGASVKLSCKASGYTFTSYGIRWVKQRTGQGLEWIGEIYPRGGNTYYDEKFKGKATLTADKSSSTAYMGLRSLTSEDSAVYFCARADYGNSFAYWGQGTLVTVSA VL: DIVMTQSPSSLTVTAREKVTMSCKSSQSLLNSGNQKNYLTWYHQKPGQPPKLLIYWASTRESGVPDRFTGSGSGTDFTLTISSVQAEDLAVYFCQNAYFYPFTFGTGTKLEIK
Result: 0.98
